System: MIWI (PIWIL1) piRISC loaded with piRNA #1 (30 nt);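 further: 1 nM active piRISC with 0.1 nM target library at 33 °C single turnover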
assayText: pre-steady-state target cleavage rate (min^-1); MIWI and MILI are mouse PIWI proteins and EfPiwi is from a freshwater sponge; tags in brackets are library labels; higher = faster piRNA-guided slicing of the target;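 further: 1 nM active piRISC with 0.1 nM target library at 33 °C single turnover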
particulars: guide: piRNA #1 5'p-UGAGGUAGUAGGUUGUAUAGUAUCCAGAGG; auxiliary factor: 500 nM mouse GTSF1
Whole data set: some 6,200 sequences, median “pre-steady-state target cleavage rate” near 0.29, cut for the highest 2% near 2. This excerpt belongs to a sample that is enriched for the highest values.
measureName: pre-steady-state target cleavage rate
Enter the number alone.

Previously resolved entries follow.
                    sequenceentry                                measuredon                            measurename  measuredresult
0  GGACUGGAUACUAUACAACGUUCUACCUCA  MIWI (PIWIL1) piRISC loaded with piRNA #1 (30 nt)  pre-steady-state target cleavage rate           0.107
1  GGUCUGGUUACUAUACAACCUACUACCACA  MIWI (PIWIL1) piRISC loaded with piRNA #1 (30 nt)  pre-steady-state target cleavage rate           0.747
2  GGAGAGGAUACUAUACAACCUACCACCUCA  MIWI (PIWIL1) piRISC loaded with piRNA #1 (30 nt)  pre-steady-state target cleavage rate           0.849
3  GGAGACCUUACUAUACAACCUACUACCUGA  MIWI (PIWIL1) piRISC loaded with piRNA #1 (30 nt)  pre-steady-state target cleavage rate           0.777
4  CCUCUGGUUACUAUACAACCUACUAGCUCA  MIWI (PIWIL1) piRISC loaded with piRNA #1 (30 nt)  pre-steady-state target cleavage rate           0.705
5  GCUCUGGUUACUAUACAACCUACUACCACA  MIWI (PIWIL1) piRISC loaded with piRNA #1 (30 nt)  pre-steady-state target cleavage rate             2.3
6  GCUCAGGAUACUAUACAACCUACAACCUCA  MIWI (PIWIL1) piRISC loaded with piRNA #1 (30 nt)  pre-steady-state target cleavage rate           0.866
7  CCACUGGUUACUAUACAACCUACUACCUCA  MIWI (PIWIL1) piRISC loaded with piRNA #1 (30 nt)  pre-steady-state target cleavage rate            2.28

Measured pre-steady-state target cleavage rate (MIWI (PIWIL1) piRISC loaded with piRNA #1 (30 nt)), entry `GGACUGGAUACAUAACAACCUACUACCUCA` : 0.634

Measured pre-steady-state target cleavage rate (MIWI (PIWIL1) piRISC loaded with piRNA #1 (30 nt)), entry `GCUCUGGUUACUAUACAACCUACAACCUCA` : 1.33

Measured pre-steady-state target cleavage rate (MIWI (PIWIL1) piRISC loaded with piRNA #1 (30 nt)), entry `CCUCUGGUUACUAUACAACCUACAACCUCA` : 1.28

Measured pre-steady-state target cleavage rate (MIWI (PIWIL1) piRISC loaded with piRNA #1 (30 nt)), entry `CCUCUGGUUACUAUACAACCUACUACCUCA` : 2.29

Measured pre-steady-state target cleavage rate (MIWI (PIWIL1) piRISC loaded with piRNA #1 (30 nt)), entry `CCUCUGGUUACUAUACAACCUACUACCACA` : 1.79
